pIC50: −log10 of the molar value.
Parameter 'readout' = pIC50; parameter 'system' = Epidermal growth factor receptor (Homo sapiens, UniProt P00533).
Sequence (P00533 whole entry): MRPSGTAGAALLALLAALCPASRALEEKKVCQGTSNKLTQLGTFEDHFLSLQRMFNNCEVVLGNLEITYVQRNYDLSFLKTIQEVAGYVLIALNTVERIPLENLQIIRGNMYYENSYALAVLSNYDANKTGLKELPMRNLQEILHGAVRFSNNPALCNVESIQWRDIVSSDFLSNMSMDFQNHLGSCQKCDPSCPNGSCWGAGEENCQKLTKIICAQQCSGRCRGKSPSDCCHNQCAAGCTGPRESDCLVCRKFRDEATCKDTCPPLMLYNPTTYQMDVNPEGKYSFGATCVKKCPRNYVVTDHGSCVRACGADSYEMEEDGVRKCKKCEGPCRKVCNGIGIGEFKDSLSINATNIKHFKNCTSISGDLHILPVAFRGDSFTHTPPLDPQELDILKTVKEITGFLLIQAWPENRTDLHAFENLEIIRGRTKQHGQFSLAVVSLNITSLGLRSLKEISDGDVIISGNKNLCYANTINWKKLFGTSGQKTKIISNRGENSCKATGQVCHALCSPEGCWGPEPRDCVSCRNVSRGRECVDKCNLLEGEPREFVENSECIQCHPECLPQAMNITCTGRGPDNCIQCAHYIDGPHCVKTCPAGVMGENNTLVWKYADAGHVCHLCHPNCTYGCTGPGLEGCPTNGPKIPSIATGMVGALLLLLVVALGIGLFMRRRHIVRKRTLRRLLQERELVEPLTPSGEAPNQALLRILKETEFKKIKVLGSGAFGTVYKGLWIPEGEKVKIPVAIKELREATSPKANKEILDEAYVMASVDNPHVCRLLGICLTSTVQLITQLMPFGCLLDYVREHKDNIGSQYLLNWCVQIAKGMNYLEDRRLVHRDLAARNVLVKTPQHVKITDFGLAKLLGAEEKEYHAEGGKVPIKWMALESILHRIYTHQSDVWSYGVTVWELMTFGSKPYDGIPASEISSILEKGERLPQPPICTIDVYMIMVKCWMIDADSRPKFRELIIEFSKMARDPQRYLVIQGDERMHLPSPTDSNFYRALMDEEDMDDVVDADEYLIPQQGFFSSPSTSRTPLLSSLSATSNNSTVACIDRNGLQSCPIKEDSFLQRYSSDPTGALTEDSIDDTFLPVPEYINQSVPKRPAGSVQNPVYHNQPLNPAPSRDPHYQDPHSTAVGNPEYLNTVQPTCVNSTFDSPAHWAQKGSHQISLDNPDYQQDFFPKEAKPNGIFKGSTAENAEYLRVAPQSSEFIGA
Quantity Measured: pIC50

- Query Smiles: "NS(=O)(=O)c1ccc(CCNC(=S)Nc2ccc3ncnc(Nc4cccc(C(F)(F)F)c4)c3c2)cc1"
  Endpoint Value: 7.37
- Query Smiles: "NS(=O)(=O)c1ccc(CCNC(=S)Nc2ccc3ncnc(Nc4ccc(OCc5cccc(F)c5)c(Cl)c4)c3c2)cc1"
  Endpoint Value: 7.55
- Query Smiles: "NS(=O)(=O)c1ccc(NC(=S)Nc2ccc3ncnc(Nc4cccc(C(F)(F)F)c4)c3c2)cc1"
  Endpoint Value: 7.29
- Query Smiles: "COc1cc2ncnc(Nc3ccc(Cl)c(C(F)(F)F)c3)c2cc1OCCCCC(=O)Nc1ccc(S(N)(=O)=O)cc1"
  Endpoint Value: 7.86
